system: Alternaria solani; test: Example M: in vivo test on Alternaria solani (leaf blotch disease/tomato/protective); details: 168 h, tomato, protective, 500 ppm active substance, assessed 7 days after inoculation, read-out: % Wirkungsgrad (activity level)
Hi there, I'd appreciate the recorded pest or weed control at 500 ppm for every entry that follows.
Numbers only, in %.

Solved cases (10 shown):
>>> meas_value("CCOCCn1cc(-c2ccnc(NC(=O)CC)c2)c(-c2ccc(F)cc2)n1 [Compound 326]")
95
>>> meas_value("CC(c1cnc(Cl)s1)n1cc(-c2ccncc2)c(-c2ccc(F)cc2)n1 (stereo not drawn) [Compound 176]")
100
>>> meas_value("COCC(C)Nc1nccc(-c2cn(CC(C)C)nc2-c2ccc(F)cc2)n1 (stereo not drawn) [Compound 285]")
95
>>> meas_value("CC(C)C(=O)Nc1cc(-c2cn(C(C)c3ccccc3F)nc2-c2ccc(F)cc2)ccn1 (stereo not drawn) [Compound 232]")
95
>>> meas_value("CC(C)C(=O)Cn1cc(-c2ccncc2)c(-c2ccc(F)cc2)n1 [Compound 178]")
94
>>> meas_value("CC(C)C(=O)Nc1cc(-c2cn(CC3CC3(Cl)Cl)nc2-c2ccc(F)cc2)ccn1 (stereo not drawn) [Compound 254]")
94
>>> meas_value("CCn1cc(-c2ccnc(NC(=O)CC3CC3)c2)c(-c2ccc(F)cc2)n1 [Compound 291]")
100
>>> meas_value("CCCn1cc(-c2ccnc(NC(=O)COC)c2)c(-c2ccc(F)cc2)n1 [Compound 293]")
100
>>> meas_value("O=C(CC1CC1)Nc1cc(-c2cn(CC3CC3(Cl)Cl)nc2-c2ccc(F)cc2)ccn1 (stereo not drawn) [Compound 251]")
94
>>> meas_value("CC(C)Cn1ncc(-c2ccncc2)c1-c1c(F)cccc1F [Compound 2]")
100

Here are 5 compounds. What values of pest or weed control at 500 ppm were reported for them?
1. CC(C)Cn1cc(-c2ccnc(NC(C)(C)C)n2)c(-c2ccc(F)cc2)n1 [Compound 284]
2. CCC(C)n1cc(-c2ccncc2)c(-c2ccc(F)cc2)n1 (stereo not drawn) [Compound 91]
3. CCCn1cc(-c2ccnc(NC(=O)CC3CC3)c2)c(-c2ccc(F)cc2)n1 [Compound 295]
4. Cc1cn(-c2cc(-c3cn(C(C)C)nc3-c3ccc(F)cc3)ccn2)cn1 [Compound 283]
5. CC(C)Cn1cc(-c2ccnc(N)n2)c(-c2ccc(F)cc2)n1 [Compound 184]

Ans.
[100, 95, 100, 95, 95]

Here are 3 compounds. What values of pest or weed control at 500 ppm were reported for them?
1. C=CCNc1nccc(-c2cn(CC(C)C)nc2-c2ccc(F)cc2)n1 [Compound 150]
2. CC(C)n1cc(-c2ccnc(NC(=O)C(O)CO)c2)c(-c2ccc(F)cc2)n1 (stereo not drawn) [Compound 210]
3. COCC(=O)Nc1cc(-c2cn(C(C)CC#N)nc2-c2ccc(F)cc2)ccn1 (stereo not drawn) [Compound 313]

Ans.
[95, 80, 95]

====

tested on: Fusarium graminearum; test: microbe, parasite or virus in culture; type: cell-based; conditions: 72 h, read-out: % Inhibition des Pilzwachstums bei 50 μM
Experimental readout: inhibition at 50 µM (%)
Numbers only, in %.

Solved cases (6 shown):
>>> meas_value("CCC(C)n1cc(-c2ccnc(NC(=O)CC3CC3)c2)c(-c2ccc(F)cc2)n1 (centres unmarked)")
102
>>> meas_value("CCC(=O)Nc1cc(-c2cn(C(C)CC)nc2-c2ccc(F)cc2)ccn1 (centres unmarked)")
100
>>> meas_value("CC(C)Cn1cc(-c2ccnc(NC(=O)C3CC3)c2)c(-c2ccc(F)c(C#N)c2)n1")
39
>>> meas_value("O=C(Nc1cc(-c2cn(CCCl)nc2-c2ccc(F)cc2)ccn1)C1CC1")
100
>>> meas_value("COCCOCC(=O)Nc1cc(-c2cn(C(C)C)nc2-c2ccc(F)cc2)ccn1")
101
>>> meas_value("CC(C)C(=O)Nc1cc(-c2cn(C(C)c3ccccc3F)nc2-c2ccc(F)cc2)ccn1 (centres unmarked)")
0

Here are 5 compounds. What values of inhibition at 50 µM were reported for them?
1. CCOCCn1cc(-c2ccnc(NC(=O)CC3CC3)c2)c(-c2ccc(F)cc2)n1
2. CC(C)Cn1cc(-c2ccncc2-c2cccc(F)c2)c(-c2ccc(F)cc2)n1
3. CC(C)CC(=O)Nc1cc(-c2cn(C(C)C)nc2-c2ccc(F)cc2)ccn1
4. Fc1ccc(-c2nn(C3CCCCO3)cc2-c2ccnc3[nH]ccc23)cc1 (centres unmarked)
5. Fc1ccc(-c2nn(C3CCCCO3)cc2-c2ccnc3ccccc23)cc1 (centres unmarked)

Ans.
1. 104
2. 0
3. 100
4. 21
5. 31

Here are 2 compounds. What values of inhibition at 50 µM were reported for them?
1. Fc1ccc(-c2nn(CC(F)F)cc2-c2ccncc2)cc1
2. CC(C)n1cc(-c2ccnc(NC(=O)N(C)C)c2)c(-c2ccc(F)cc2)n1

Ans.
1. 101
2. 100

====

Hi there, I'd appreciate the recorded chromatographic logP for every entry that follows.
assay: physchem; conditions: LogPA
One number for each entry.

>>> meas_value("CC(C)n1cc(-c2ccnc(NC(C)C(F)(F)F)c2)c(-c2ccc(F)cc2)n1 (stereo not shown) [Compound 318]")
2.26

Here are 3 compounds. What values of chromatographic logP were reported for them?
1. CC(C)Cn1cc(-c2ccnc(NCc3ccccc3)n2)c(-c2ccc(F)cc2)n1 [Compound 182]
2. CC(C)CC(=O)Nc1cc(-c2cn(C)nc2-c2ccc(F)cc2)ccn1 [Compound 347]
3. CC(c1ccccc1F)n1cc(-c2ccnc(NC(=O)C3CC3)c2)c(-c2ccc(F)cc2)n1 (stereo not shown) [Compound 259]

Ans.
1: 3.15; 2: 2.12; 3: 3.13

====

Hi there, I'd appreciate the recorded chromatographic logP for every entry that follows.
test: determination of the log P values by HPLC on a reverse phase column (C18), EEC-Directive 79/831 Annex V.A8; details: pH 2.7
Counter-ions that a name gives are not always drawn.
One number for each entry.

Solved cases (2 shown):
>>> meas_value("Fc1ccc(-c2n[nH]cc2-c2ccncc2)cc1 [[IX-1], hydrochloride]")
0.65
>>> meas_value("CCC[CH2][Sn]([CH2]CCC)([CH2]CCC)[c]1c(-c2ccncc2)cnn1C1CCCCO1 (stereo not drawn) [[XI-1]]")
5.09

Here's the next entry for you.
Qu. Any idea what its chromatographic logP is? The molecule is c1cc(-c2cnn(C3CCCCO3)c2)ccn1 (stereo not drawn) [[XII-1]]
Ans. 0.38

====

test system: Alternaria solani; assay: Example M: in vivo test on Alternaria solani (leaf blotch disease/tomato/protective); conditions: 168 h, tomato, protective, 500 ppm active substance, assessed 7 days after inoculation, read-out: % Wirkungsgrad (activity level)
Hi there, I'd appreciate the recorded pest or weed control at 500 ppm for every entry that follows.
Numbers only, in %.

>>> meas_value("CCn1cc(-c2ccnc(NC(=O)COC)c2)c(-c2ccc(F)cc2)n1")
93

Here are 8 compounds. What values of pest or weed control at 500 ppm were reported for them?
1. CCOC(=O)CC(CC)CC(=O)Nc1cc(-c2cn(CC)nc2-c2ccc(F)cc2)ccn1 (stereo not shown)
2. CC(C)Nc1nccc(-c2cn(CC(F)F)nc2-c2ccc(F)cc2)n1
3. CCOC(=O)Cn1cc(-c2ccncc2)c(-c2ccc(F)cc2)n1
4. CCC(=O)Nc1cc(-c2cn(CC3CC3(Cl)Cl)nc2-c2ccc(F)cc2)ccn1 (stereo not shown)
5. CC(C)n1ncc(-c2ccnc(NC(=O)C(C)(C)C)c2)c1-c1ccc(F)cc1
6. CCC(=O)Nc1cc(-c2cn(C3CC3)nc2-c2ccc(F)cc2)ccn1
7. CC(CC#N)n1cc(-c2ccnc(NC(=O)CC3CC3)c2)c(-c2ccc(F)cc2)n1 (stereo not shown)
8. CC(=O)Nc1cc(-c2cn(C)nc2-c2ccc(F)cc2)ccn1

Ans.
1: 90; 2: 95; 3: 78; 4: 94; 5: 95; 6: 95; 7: 95; 8: 95

Here are 7 compounds. What values of pest or weed control at 500 ppm were reported for them?
1. CC(Nc1cc(-c2cn(CC3CC3)nc2-c2ccc(F)cc2)ccn1)C(F)(F)F (stereo not shown)
2. CC(C)Cn1cc(-c2ccnc(NC3CC3)n2)c(-c2ccc(F)cc2)n1
3. CCOCCn1cc(-c2ccnc(NC(=O)C(C)C)c2)c(-c2ccc(F)cc2)n1
4. COCCOCCn1cc(-c2ccncc2)c(-c2ccc(F)cc2)n1
5. CC(C)CC(=O)Nc1cc(-c2cn(CC(F)F)nc2-c2ccc(F)cc2)ccn1
6. CCC(=O)Nc1cc(-c2cn(CC3OCCO3)nc2-c2ccc(F)cc2)ccn1
7. CC(C)CC(=O)Nc1cc(-c2cn(C(C)C)nc2-c2ccc(F)cc2)ccn1

Ans.
1. 70
2. 95
3. 95
4. 100
5. 94
6. 95
7. 95

Here are 3 compounds. What values of pest or weed control at 500 ppm were reported for them?
1. Cn1cc(-c2ccnc(NC(=O)C3CCC3)c2)c(-c2ccc(F)cc2)n1
2. CC(C)On1cc(-c2ccnc(NC(=O)C3CC3)c2)c(-c2ccc(F)cc2)n1
3. COCC(=O)Nc1cc(-c2cn(CC(F)F)nc2-c2ccc(F)cc2)ccn1

Ans.
[80, 89, 95]
